- System: C. krusei
- Assay method text: Minimum inhibitory concentration, RPMI medium
- Type: cell-based
- Test settings: banded MIC grade
Recorded endpoint: MIC grade, C. KRUSEI, RPMI media

Worked examples, 2 compounds total:
{"Structure": "NC1=NN=C(CCOCCOc2ccccc2)CS1", "Experimental system": "C. krusei", "Experimental value": "4 (4: <1 mg/L)"}
{"Structure": "NC1=NN=C(CCCCOCc2ccc(Br)cc2)CS1", "Experimental system": "C. krusei", "Experimental value": "4 (4: <1 mg/L)"}

Would you be so kind as to report MIC grade, C. KRUSEI, RPMI media for each listed record?
1. NC1=NN=C(CCCCOCc2cccc(CCc3ccccc3)c2)CS1
2. NC1=NN=C(CCCCOCc2ccc(C(F)(F)F)cc2)CS1
3. NC1=NN=C(CCCCOCc2ccc(Cl)c(F)c2)CS1
4. NC1=NN=C(CCCCOCc2c(F)cccc2Cl)CS1
5. CCCCc1cccc(COCCCCC2=NN=C(N)SC2)c1
6. NC1=NN=C(CCCCOCc2cccc(Br)c2)CS1

1: 2 (2: 5-20 mg/L); 2: 4 (4: <1 mg/L); 3: 4 (4: <1 mg/L); 4: 3 (3: 1-5 mg/L); 5: 2 (2: 5-20 mg/L); 6: 4 (4: <1 mg/L)

// batch mode: one MIC grade, C. KRUSEI, RPMI media value per listed entry
1. CCc1cccc(COCCCCC2=NN=C(N)SC2)c1
2. NC1=NN=C(CCCCOCc2cc(F)ccc2F)CS1
3. Cc1cc(COCCCCC2=NN=C(N)SC2)ccc1F
4. NC1=NN=C(CCCCOCc2ccccc2C2CC2)CS1
5. NC1=NN=C(CCCCOCc2cc(F)cc(F)c2)CS1

["4 (4: <1 mg/L)", "3 (3: 1-5 mg/L)", "4 (4: <1 mg/L)", "2 (2: 5-20 mg/L)", "4 (4: <1 mg/L)"]

###

- System: Aspergillus niger
- Assay method text: Minimum inhibitory concentration, YAG medium
- Format: cell-based
- Test settings: banded MIC grade
Recorded endpoint: MIC grade, A. NIGER, YAG media

Worked cases, MIC grade, A. NIGER, YAG media given:
{"Structure": "NC1=NN=C(CCCCOCc2ccc(Cl)cc2F)CS1", "Recorded endpoint": "MIC grade, A. NIGER, YAG media", "Experimental value": "3 (3: 0.2-1 mg/L)"}
{"Structure": "NC1=NN=C(CCCCc2cc3ccccc3o2)CS1", "Recorded endpoint": "MIC grade, A. NIGER, YAG media", "Experimental value": "3 (3: 0.2-1 mg/L)"}
{"Structure": "CCCCC/C=C/C1=NN=C(N)SC1", "Recorded endpoint": "MIC grade, A. NIGER, YAG media", "Experimental value": "2 (2: 1-5 mg/L)"}
{"Structure": "CCCc1ccc(C2=NN=C(N)SC2)cc1", "Recorded endpoint": "MIC grade, A. NIGER, YAG media", "Experimental value": "2 (2: 1-5 mg/L)"}

// input: 2 compounds below; output: MIC grade, A. NIGER, YAG media for each
1. Cc1ccc(C2=NN=C(N)SC2)cc1
2. COCCCCOCCC1=NN=C(N)SC1

3 (3: 0.2-1 mg/L)
3 (3: 0.2-1 mg/L)

Go through the items and report each one's MIC grade, A. NIGER, YAG media.
1. COc1ccc(COCCC2=NN=C(N)SC2)cc1
2. NC1=NN=C(CCCCCCc2ccccc2)CS1
3. COCCCCCC1=NN=C(N)SC1
4. NC1=NN=C(CCCCSCc2ccc(Cl)cc2)CS1
5. NC1=NN=C(c2ccc(C3CCCCC3)cc2)CS1
6. COC(=O)CC1=NN=C(N)SC1
7. NC1=NN=C(CCCCc2ccccc2)CS1
8. NC1=NN=C(CCCCOCc2ccc(F)cc2)CS1

3 (3: 0.2-1 mg/L)
4 (4: <0.2 mg/L)
4 (4: <0.2 mg/L)
4 (4: <0.2 mg/L)
1 (1: ≥5 mg/L)
2 (2: 1-5 mg/L)
4 (4: <0.2 mg/L)
2 (2: 1-5 mg/L)
